Assay: binders of probe aFGF10 on microarray, primary screen, stem cell growth factor project, biochemical, small-molecule microarray, fluorescence 635/667 (AID 1071);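 further: score merges 667 nm spot intensity and signal to noise from triplicate slides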
Conditions: higher = more signal
Measurement Type: composite z-score
Would you mind answering with just the numeric figure?

Identify measured composite z-score associated with `O=C(NC1CC1)[C@@H]1c2ccccc2C(=O)N(Cc2ccccc2Cl)[C@H]1c1ccc(CO)cc1`
0.486

Identify measured composite z-score associated with CN1C=C(C(=O)OCCS(C)(=O)=O)C(C(=O)OCCS(C)(=O)=O)=CC(c2ccc(CO)cc2)=CC1C1CC1 (centres undefined)
0.0351

Identify measured composite z-score associated with `CCOC(=O)C[C@H]1[C@H](OC(=O)c2cc3ccccc3oc2=O)[C@@H](NC(=O)c2ccccc2)c2cc(OCCCO)ccc2N1C(=O)c1ccc2ccccc2n1`
0.8

Identify measured composite z-score associated with `CCOC(=O)C[C@H]1[C@H](OC(=O)c2ccccc2-c2ccccc2)[C@@H](NC(=O)CC(C)C)c2cc(OCCCO)ccc2N1C(=O)Cc1ccc(OC)cc1`
0.225

Entry source: PubChem BioAssay
